System: Plasmodium falciparum
Assay: Hit confirmation in dose-response curve in NF54 pLDH assay, at 72h
Format: functional, organism-based
Set-up: timepoint 72 hour
Details: NF54, Erythrocyte
Listed below: IC50 values for each entry.
Express the result in nM but write the number alone.

Below are worked cases with known answers.
>>> measurement("CC(N=C1NC(=NC(C)c2ccccc2)c2ccccc21)c1ccccc1 (stereo not given)")
5010
>>> measurement("COc1nc(NC2CCS(=O)(=O)CC2)ncc1F")
83.2
>>> measurement("CC12CN(S(=O)(=O)c3ccc4c(c3)OCCO4)C3(C(=O)OCc4ccccc4)CC1CCC23C (stereo not given)")
3800
>>> measurement("Cc1ccc(C2c3ccsc3CCN2CCC(=O)N2CCN(C(=O)Cc3cccs3)C(C)C2)cc1 (stereo not given)")
2750
>>> measurement("COc1cccc(-c2cc(O)cc(CC[C@H]3CCCCN3)c2)n1")
1820

Read the next record carefully.
Q: Please look up its IC50: Cn1c(Cc2n[n+]3c(-c4ccccc4)cc(-c4ccccc4)nc3n2C)n[n+]2c(-c3ccccc3)cc(-c3ccccc3)nc12
A: 331

* * *

Listed below: log10(IC50) values for each entry.
System: Plasmodium falciparum
Test: Hit confirmation in dose-response curve in NF54 nanoGlo assay, at 72h
Format: functional, organism-based, Erythrocyte
Design: timepoint 72 hour
Details: Plasmodium falciparum, NF54, Erythrocyte, 72 h
Heads up, the numbers here are log10 of IC50 in nM units.

Below are worked cases with known answers.
>>> measurement("c1ccc(C2=NN(c3ccc(-c4cc(-c5ccccc5)[n+](-c5ccccc5)c(-c5ccccc5)c4)cc3)[C@H](c3ccccc3)C2)cc1")
2.80
>>> measurement("Cc1cc(OC[C@@H](O)CNC(C)(C)CC(C)(C)C)cc(C)c1Cl")
3.38
>>> measurement("COc1ccc(-c2cc3nc(C)cc(N4CCN(C/C=C/c5ccccc5)CC4)n3n2)cc1OC")
3.35
>>> measurement("CN1CCN(Cc2cc3cc4c(cc3nc2-c2ccc(Cl)cc2)OCO4)CC1=O")
3.61
>>> measurement("CCNC(=O)N1CC[C@H](Oc2ccc3ccccc3n2)C1")
3.43

Read the next record carefully.
Q: Which measured log10(IC50) belongs to O=C(N[C@H]1CC[C@@H]2CCC[C@@H]21)c1c[nH]c(=O)c(Cl)c1 , tested on Plasmodium falciparum?
A: 3.34

* * *

System: Plasmodium falciparum
Assay: Hit confirmation in dose-response curve in NF54 nanoGlo assay, at 72h
Assay type: functional, organism-based, Erythrocyte
Design: timepoint 72 hour
Conditions: Plasmodium falciparum, NF54, Erythrocyte, 72 h
value_kind: log10 of IC50 (log10 of the value in nM)
Heads up, the numbers here are log10 of IC50 in nM units.

Below are worked cases with known answers.
>>> measurement("O=C(N[C@@H](Cn1nccn1)c1ccccc1)c1cc(Br)ccc1Cl")
3.24
>>> measurement("CCn1cc(-c2nc(-c3ccccc3C)no2)c(=O)c2cc(F)c(N3CCOCC3)cc21")
3.55
>>> measurement("S=c1cc(-c2ccccc2)n(Cc2ccco2)c2c1CCCC2")
3.41

Q: Please look up its log10 of IC50: Cc1noc(C)c1CN1C[C@@H]2Oc3cc(F)ccc3C(=O)N(C)[C@@H]2C1
A: 2.86

* * *

Test system: Plasmodium falciparum
Test: Hit confirmation in dose-response curve in NF54 pLDH assay, at 72h
Format: functional, organism-based
Set-up: timepoint 72 hour
Conditions: NF54, Erythrocyte
Response field label takes Satisfied when IC50 is strictly below 4 µM and Not satisfied in all other cases.

>>> assigned_label("COc1ccc(-c2cc(C(=O)N[C@H]3CCN(c4ccc(=O)n(C)n4)C3)c(C)n2C)cc1")
"Satisfied"
>>> assigned_label("Cc1nc(N)nc(C)c1C(=O)Nc1ccc(Nc2ncccn2)cc1")
"Satisfied"
>>> assigned_label("O=C1c2ccccc2C(c2ccc(NC(=O)c3cccc4ccccc34)cc2)(c2ccc(NC(=O)c3cccc4ccccc34)cc2)c2ccccc21")
"Not satisfied"
>>> assigned_label("CN(CCNC(=O)CCc1cn(-c2ccccc2)nc1-c1ccc2c(c1)OCO2)C1CCCCC1")
"Satisfied"

API: the following record is the query input.
Q: IC50 under 4 µM? Item: CC(=O)N(C1CCN(Cc2ccccc2)CC1)C1(C(=O)Nc2ccc3[nH]ccc3c2)CCN(C)CC1
A: Satisfied
